Entries and their inhibition at 1.1 µM values follow.
- STUDY_TARGET: endothelin receptor (membrane of smooth muscle tissue of porcine aorta) (Sus scrofa, UniProt Q29010)
- Construct: from tissue; host or cells: smooth muscle tissue of porcine aorta (membrane fraction)
- ASSAY_INFO: Endothelin binding inhibition test (125I-endothelin-1, porcine aorta smooth muscle membrane)
- ASSAY_CONTEXT: 1.1 μM of the test compound; porcine aorta smooth muscle membrane; 25° C, 4 hours; read-out: 125I-endothelin-1 binding inhibition, Inhibition (%)
Square brackets hold non-standard residues; d marks the D form. Peptide text beside a SMILES is read from it. * marks the point of attachment. dGly(2-thienyl) = N[C@@H](C(=O)O)c1cccs1; For = O=C*
REPORTED_METRIC: inhibition at 1.1 µM (%)

COMPOUND	REPORTED_METRIC	ENDPOINT_RESULT
CC(C)C[C@@H]1NC(=O)[C@@H](c2cccs2)NC(=O)[C@@H]2CCCN2C(=O)[C@@H](CC(=O)O)NC(=O)[C@@H](Cc2c[nH]c3ccccc23)NC1=O [Example 67, cyclo(-DTrp-DAsp-Pro-DThg-Leu-)] (cyclo(L[dW][dD]P[dGly(2-thienyl)]))	inhibition at 1.1 µM	82
CC(C)[C@H]1NC(=O)[C@@H]2CCCN2C(=O)[C@@H](CC(=O)O)NC(=O)[C@@H](Cc2c[nH]c3ccccc23)NC(=O)[C@H](Cc2c[nH]cn2)NC1=O [Example 84, cyclo(-DTrp-DAsp-Pro-DVal-His)] (cyclo(H[dW][dD]P[dV]))	inhibition at 1.1 µM	43
CC(C)C[C@@H]1NC(=O)[C@@H](C(C)C)NC(=O)[C@H](CCCCNC=O)NC(=O)[C@@H](CC(=O)O)NC(=O)[C@@H](Cc2c[nH]c3ccccc23)NC1=O [Example 57, cyclo(-DTrp-DAsp-Lys(CHO)-DVal-Leu-)] (cyclo(K(For)[dV]L[dW][dD]))	inhibition at 1.1 µM	65
CC(C)C[C@@H]1NC(=O)[C@@H](C(C)C)NC(=O)[C@H](Cc2c[nH]cn2)NC(=O)[C@@H](CC(=O)O)NC(=O)[C@@H](Cc2c[nH]c3ccccc23)NC1=O [Example 18, cyclo(-DTrp-DAsp-His-DVal-Leu-)] (cyclo(H[dV]L[dW][dD]))	inhibition at 1.1 µM	69
CC(C)C[C@@H]1NC(=O)[C@@H](C(C)C)NC(=O)[C@@H]2CCCN2C(=O)[C@@H](CCC(=O)O)NC(=O)[C@@H](Cc2c[nH]c3ccccc23)NC1=O [Example 10, cyclo(-DTrp-DGlu-Pro-DVal-Leu-)] (cyclo(L[dW][dE]P[dV]))	inhibition at 1.1 µM	54
CC(C)C[C@@H]1NC(=O)[C@@H](C(C)C)NC(=O)[C@H](CO)NC(=O)[C@@H](CCC(=O)O)NC(=O)[C@@H](Cc2c[nH]c3ccccc23)NC1=O [Example 1, cyclo(-DTrp-DGlu-Ser-DVal-Leu-)] (cyclo(L[dW][dE]S[dV]))	inhibition at 1.1 µM	19

* * *

Each record here notes measured inhibition at 1.1 µM.
- STUDY_TARGET: endothelin receptor (membrane of smooth muscle tissue of porcine aorta) (Sus scrofa)
- Construct: from tissue; host or cells: smooth muscle tissue of porcine aorta (membrane fraction)
- Sequence (Q29010 21-427): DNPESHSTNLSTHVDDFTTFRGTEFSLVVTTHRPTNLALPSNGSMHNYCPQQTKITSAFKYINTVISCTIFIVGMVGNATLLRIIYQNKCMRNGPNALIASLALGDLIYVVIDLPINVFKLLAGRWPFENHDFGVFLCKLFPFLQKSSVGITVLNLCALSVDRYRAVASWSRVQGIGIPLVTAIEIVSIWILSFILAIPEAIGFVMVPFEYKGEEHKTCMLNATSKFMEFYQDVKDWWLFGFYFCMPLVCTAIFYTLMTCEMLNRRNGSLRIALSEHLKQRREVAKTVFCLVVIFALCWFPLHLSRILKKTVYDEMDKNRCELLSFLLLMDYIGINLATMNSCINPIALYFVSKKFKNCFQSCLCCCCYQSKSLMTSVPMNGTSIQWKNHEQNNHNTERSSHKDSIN
- ASSAY_INFO: Endothelin binding inhibition test (125I-endothelin-1, porcine aorta smooth muscle membrane)
- ASSAY_CONTEXT: 1.1 μM of the test compound; porcine aorta smooth muscle membrane; 25° C, 4 hours; read-out: 125I-endothelin-1 binding inhibition, Inhibition (%)
Square brackets hold non-standard residues; d marks the D form. Peptide text beside a SMILES is read from it. * marks the point of attachment. Met(O) = CS(=O)CC[C@H](N)C(=O)O; Nle = CCCC[C@H](N)C(=O)O; For = O=C*

COMPOUND	QUANTITY_UNIT	inhibition at 1.1 µM
CC(C)C[C@@H]1NC(=O)[C@@H](C(C)C)NC(=O)[C@H](CC(=O)O)NC(=O)[C@@H](CCC(=O)O)NC(=O)[C@@H](Cc2c[nH]c3ccccc23)NC1=O [Example 9, cyclo(-DTrp-DGlu-Asp-DVal-Leu-)] (cyclo(D[dV]L[dW][dE]))	%	30
CCCC[C@@H]1NC(=O)[C@@H](CC(=O)O)NC(=O)[C@@H](Cc2c[nH]c3ccccc23)NC(=O)[C@H](CC(C)C)NC(=O)[C@@H](C(C)C)NC1=O [Example 46, cyclo(-DTrp-DAsp-Nle-DVal-Leu-)] (cyclo(L[dW][dD][Nle][dV]))	%	75
CC(C)C[C@@H]1NC(=O)[C@@H](C(C)C)NC(=O)[C@H](CC[S+](C)[O-])NC(=O)[C@@H](CC(=O)O)NC(=O)[C@@H](Cc2cn(C=O)c3ccccc23)NC1=O (stereo partly drawn) [Example 58, cyclo(-DTrp(CHO)-DAsp-Met(O)-DVal-Leu-)] (cyclo(L[dW](For)[dD][Met(O)][dV]))	%	84
CC(C)[C@H]1NC(=O)[C@H](CC(=O)O)NC(=O)[C@@H](CC(=O)O)NC(=O)[C@@H](Cc2c[nH]c3ccccc23)NC(=O)[C@H](C)NC1=O [Example 38, cyclo(-DTrp-DAsp-Asp-DVal-Ala-)] (cyclo(A[dW][dD]D[dV]))	%	21
